# Tested on: OVCAR-4 ovarian
# PROTOCOL: NCI tumour cell line growth inhibition, 48 h
This listing pairs compounds with measured TGI.

COMPOUND	TGI
O=C1C2CC=CCC2C(=O)C12CCc1ccccc12 (stereo not drawn)	> 100 µM
CC(C)(C)OC(=O)N1Cc2cc(O)ccc2C[C@H]1C(=O)O	> 100 µM
COc1ccc(/C=N/n2cnc3c(c2=O)S/C(=C2/SC(=S)N(c4ccc(C)cc4)C2=O)N3c2ccccc2)cc1	94.1 µM
O=C1OC(c2ccc(Cl)cc2)(c2ccc(Cl)cc2)c2c1ccc1ccccc21	> 100 µM
O=C(NCCCCCCNC(=O)n1cc(F)c(=O)[nH]c1=O)NCCCOCCOCCOCCOCCOCCOCCOCCOCCOCCOCCOCCOCCOCCOCCOCCOCCOCCOCCOCCOCCOCCCNC(=O)C(O)C(O)C(OC1OC(CO)C(O)C(O)C1O)C(O)CO (stereo not drawn)	> 100 µM
COC(=O)c1c(O)ccc2c1c1c(n2Cc2ccccc2OC)C(=O)c2ccccc2C1	87.9 µM
O=C(/C=C/c1cccc([N+](=O)[O-])c1)c1ccc(O)c(CN2CCN(c3cc4c(cc3F)c(=O)c(C(=O)O)cn4C3CC3)CC2)c1	3.07 µM
CC(=O)NC(C)c1ccc(N=NN2CCCC2)cc1 (stereo not drawn)	> 100 µM

Data provenance is PubChem BioAssay (NCI).
